Cited source for all entries: ChEMBL document CHEMBL1136139

Below is a list of entries, each paired with its recorded bioavailability value.
MEASUREMENT PROTOCOL: Oral bioavailability in dog (dose 10 mg/kg)
Format: ADME, organism-based, Canis lupus familiaris
TEST SETTINGS: in vivo
OBSERVED PROPERTY: bioavailability (%)

compound_structure=CC(C)(c1ncc(-c2cccnc2)o1)N1CCN(C[C@@H](O)C[C@@H](Cc2ccccc2)C(=O)N[C@H]2c3ccccc3OC[C@H]2O)[C@H](C(=O)NCC(F)(F)F)C1 observed_property=bioavailability unit_abbreviation=% value_measured=10
compound_structure=COc1cncc(-c2cnc(C(C)(C)N3CCN(C[C@@H](O)C[C@@H](Cc4ccccc4)C(=O)N[C@H]4c5ccccc5OC[C@H]4O)[C@H](C(=O)NCC(F)(F)F)C3)o2)c1 observed_property=bioavailability unit_abbreviation=% value_measured=30
compound_structure=CC(C)(c1ncc(-c2cnccc2Cl)o1)N1CCN(C[C@@H](O)C[C@@H](Cc2ccccc2)C(=O)N[C@H]2c3ccccc3OC[C@H]2O)[C@H](C(=O)NCC(F)(F)F)C1 observed_property=bioavailability unit_abbreviation=% value_measured=8

====

# IC50 measurements, system: Cytochrome P450 3A4 (Homo sapiens)
# Sequence (P08684 whole entry): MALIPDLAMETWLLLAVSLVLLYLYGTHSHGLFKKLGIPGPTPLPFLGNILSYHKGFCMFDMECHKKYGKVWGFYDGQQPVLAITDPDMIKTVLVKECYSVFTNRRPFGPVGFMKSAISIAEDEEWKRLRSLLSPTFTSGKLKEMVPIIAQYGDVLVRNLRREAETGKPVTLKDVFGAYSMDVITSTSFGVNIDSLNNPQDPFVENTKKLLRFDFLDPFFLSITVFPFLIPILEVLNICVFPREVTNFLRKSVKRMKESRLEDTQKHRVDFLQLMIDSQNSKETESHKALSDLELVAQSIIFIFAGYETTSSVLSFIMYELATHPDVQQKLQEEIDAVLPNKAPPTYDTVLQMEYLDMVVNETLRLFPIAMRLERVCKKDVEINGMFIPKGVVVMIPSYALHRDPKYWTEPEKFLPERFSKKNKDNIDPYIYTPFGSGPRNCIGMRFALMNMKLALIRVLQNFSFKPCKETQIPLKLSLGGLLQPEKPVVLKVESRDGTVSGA
OBSERVED PROPERTY: IC50 (nM)

compound_structure=COc1cncc(-c2cnc(C(C)(C)N3CCN(C[C@@H](O)C[C@@H](Cc4ccccc4)C(=O)N[C@H]4c5ccccc5OC[C@H]4O)[C@H](C(=O)NCC(F)(F)F)C3)o2)c1 value_measured=40
compound_structure=CC(C)(c1ncc(-c2ccccn2)o1)N1CCN(C[C@@H](O)C[C@@H](Cc2ccccc2)C(=O)N[C@H]2c3ccccc3OC[C@H]2O)[C@H](C(=O)NCC(F)(F)F)C1 value_measured=5000
compound_structure=CC(C)(c1ncc(-c2cnccc2Cl)o1)N1CCN(C[C@@H](O)C[C@@H](Cc2ccccc2)C(=O)N[C@H]2c3ccccc3OC[C@H]2O)[C@H](C(=O)NCC(F)(F)F)C1 value_measured=40
compound_structure=CC(C)(c1ncc(-c2cccnc2)o1)N1CCN(C[C@@H](O)C[C@@H](Cc2ccccc2)C(=O)N[C@H]2c3ccccc3OC[C@H]2O)[C@H](C(=O)NCC(F)(F)F)C1 value_measured=110

====

MEASUREMENT PROTOCOL: Half life period was determine after peroral administration at 10 mpk in Rat
Type: ADME, organism-based
TEST SETTINGS: in vivo, po, 10 mg/kg
OBSERVED PROPERTY: half-life

compound_structure=COc1cncc(-c2cnc(C(C)(C)N3CCN(C[C@@H](O)C[C@@H](Cc4ccccc4)C(=O)N[C@H]4c5ccccc5OC[C@H]4O)[C@H](C(=O)NCC(F)(F)F)C3)o2)c1 observed_property=half-life value_measured="26 min"

====

MEASUREMENT PROTOCOL: Intrinsic clearance in dog liver microsome
Format: ADME, Canis lupus familiaris
TEST SETTINGS: liver microsomes
OBSERVED PROPERTY: CLint (mL/min/kg)

compound_structure=COc1cncc(-c2cnc(C(C)(C)N3CCN(C[C@@H](O)C[C@@H](Cc4ccccc4)C(=O)N[C@H]4c5ccccc5OC[C@H]4O)[C@H](C(=O)NCC(F)(F)F)C3)o2)c1 observed_property=CLint value_measured=67

====

MEASUREMENT PROTOCOL: Area under curve was determine after peroral administration at 20 mpk in Rat
Type: ADME, organism-based
TEST SETTINGS: in vivo, po, 20 mg/kg
OBSERVED PROPERTY: AUC (µM·h)

compound_structure=COc1cncc(-c2cnc(C(C)(C)N3CCN(C[C@@H](O)C[C@@H](Cc4ccccc4)C(=O)N[C@H]4c5ccccc5OC[C@H]4O)[C@H](C(=O)NCC(F)(F)F)C3)o2)c1 observed_property=AUC value_measured=0.38

====

Record: pIC50 reported on Cytochrome P450 2C9 (Homo sapiens, UniProt P11712).
Sequence (P11712 whole entry): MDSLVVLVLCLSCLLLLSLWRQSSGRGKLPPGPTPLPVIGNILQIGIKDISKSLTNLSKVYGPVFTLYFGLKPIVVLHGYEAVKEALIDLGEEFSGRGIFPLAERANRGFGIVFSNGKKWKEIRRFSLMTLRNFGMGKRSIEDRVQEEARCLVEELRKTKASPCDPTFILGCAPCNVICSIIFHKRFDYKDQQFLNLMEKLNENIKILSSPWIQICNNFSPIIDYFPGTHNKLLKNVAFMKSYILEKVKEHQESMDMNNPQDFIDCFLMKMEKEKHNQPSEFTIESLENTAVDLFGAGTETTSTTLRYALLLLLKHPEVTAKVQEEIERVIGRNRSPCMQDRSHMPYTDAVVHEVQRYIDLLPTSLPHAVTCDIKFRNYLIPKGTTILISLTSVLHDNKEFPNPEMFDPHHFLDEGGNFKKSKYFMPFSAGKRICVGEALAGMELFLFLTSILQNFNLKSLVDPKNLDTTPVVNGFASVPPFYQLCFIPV
pIC50: −log10 of the molar value.
OBSERVED PROPERTY: pIC50

compound_structure=CC(C)(c1ncc(-c2cnccc2Cl)o1)N1CCN(C[C@@H](O)C[C@@H](Cc2ccccc2)C(=O)N[C@H]2c3ccccc3OC[C@H]2O)[C@H](C(=O)NCC(F)(F)F)C1 value_measured=4.68
compound_structure=CC(C)(c1ncc(-c2cccnc2)o1)N1CCN(C[C@@H](O)C[C@@H](Cc2ccccc2)C(=O)N[C@H]2c3ccccc3OC[C@H]2O)[C@H](C(=O)NCC(F)(F)F)C1 value_measured=4.48
compound_structure=CC(C)(c1ncc(-c2ccccn2)o1)N1CCN(C[C@@H](O)C[C@@H](Cc2ccccc2)C(=O)N[C@H]2c3ccccc3OC[C@H]2O)[C@H](C(=O)NCC(F)(F)F)C1 value_measured=4.55
compound_structure=COc1cncc(-c2cnc(C(C)(C)N3CCN(C[C@@H](O)C[C@@H](Cc4ccccc4)C(=O)N[C@H]4c5ccccc5OC[C@H]4O)[C@H](C(=O)NCC(F)(F)F)C3)o2)c1 value_measured=4.52

====

MEASUREMENT PROTOCOL: Oral bioavailability after peroral administration at 20 mpk in Rat
Type: ADME, organism-based
TEST SETTINGS: in vivo, 20 mg/kg
OBSERVED PROPERTY: bioavailability

compound_structure=COc1cncc(-c2cnc(C(C)(C)N3CCN(C[C@@H](O)C[C@@H](Cc4ccccc4)C(=O)N[C@H]4c5ccccc5OC[C@H]4O)[C@H](C(=O)NCC(F)(F)F)C3)o2)c1 value_measured=9.2%

====

MEASUREMENT PROTOCOL: Oral bioavailability after peroral administration at 10 mpk in Rat
Type: ADME, organism-based
TEST SETTINGS: in vivo, 10 mg/kg
OBSERVED PROPERTY: bioavailability (%)

compound_structure=COc1cncc(-c2cnc(C(C)(C)N3CCN(C[C@@H](O)C[C@@H](Cc4ccccc4)C(=O)N[C@H]4c5ccccc5OC[C@H]4O)[C@H](C(=O)NCC(F)(F)F)C3)o2)c1 value_measured=1.5

====

TESTED TARGET: Human immunodeficiency virus type 1 protease (Human immunodeficiency virus 1, UniProt Q72874)
OBSERVED PROPERTY: IC50 (nM)

compound_structure=COc1cncc(-c2cnc(C(C)(C)N3CCN(C[C@@H](O)C[C@@H](Cc4ccccc4)C(=O)N[C@H]4c5ccccc5OC[C@H]4O)[C@H](C(=O)NCC(F)(F)F)C3)o2)c1 value_measured=0.02
compound_structure=O=C(N[C@H]1c2ccccc2OC[C@H]1O)[C@H](Cc1ccccc1)C[C@H](O)CN1CCN(Cc2ncc(-c3ccccn3)o2)C[C@H]1C(=O)NCC(F)(F)F value_measured=0.13
compound_structure=CC(C)(c1ncc(-c2cnccc2Cl)o1)N1CCN(C[C@@H](O)C[C@@H](Cc2ccccc2)C(=O)N[C@H]2c3ccccc3OC[C@H]2O)[C@H](C(=O)NCC(F)(F)F)C1 value_measured=0.02
compound_structure=O=C(N[C@H]1c2ccccc2OC[C@H]1O)[C@H](Cc1ccccc1)C[C@H](O)CN1CCN(Cc2ncc(-c3cccnc3)o2)C[C@H]1C(=O)NCC(F)(F)F value_measured=0.14
compound_structure=CC(C)(c1ncc(-c2ccccn2)o1)N1CCN(C[C@@H](O)C[C@@H](Cc2ccccc2)C(=O)N[C@H]2c3ccccc3OC[C@H]2O)[C@H](C(=O)NCC(F)(F)F)C1 value_measured=0.04
compound_structure=O=C(N[C@H]1c2ccccc2OC[C@H]1O)[C@H](Cc1ccccc1)C[C@H](O)CN1CCN(Cc2ccc(-c3ccccn3)o2)C[C@H]1C(=O)NCC(F)(F)F value_measured=0.05
compound_structure=O=C(N[C@H]1c2ccccc2OC[C@H]1O)[C@H](Cc1ccccc1)C[C@H](O)CN1CCN(Cc2ncc(-c3ccncc3)o2)C[C@H]1C(=O)NCC(F)(F)F value_measured=0.1
compound_structure=CC(C)(c1ncc(-c2cccnc2)o1)N1CCN(C[C@@H](O)C[C@@H](Cc2ccccc2)C(=O)N[C@H]2c3ccccc3OC[C@H]2O)[C@H](C(=O)NCC(F)(F)F)C1 value_measured=0.04

====

MEASUREMENT PROTOCOL: Intrinsic clearance in Rhesus liver microsome
Assay type: ADME, Macaca mulatta
TEST SETTINGS: rhesus monkey, liver microsomes
OBSERVED PROPERTY: CLint (mL/min/kg)

compound_structure=COc1cncc(-c2cnc(C(C)(C)N3CCN(C[C@@H](O)C[C@@H](Cc4ccccc4)C(=O)N[C@H]4c5ccccc5OC[C@H]4O)[C@H](C(=O)NCC(F)(F)F)C3)o2)c1 unit_abbreviation=mL/min/kg value_measured=120

====

MEASUREMENT PROTOCOL: Oral bioavailability in Rhesus monkey (dose 10 mg/kg p.o.)
Assay type: ADME, organism-based, Macaca mulatta
TEST SETTINGS: in vivo
OBSERVED PROPERTY: bioavailability

compound_structure=COc1cncc(-c2cnc(C(C)(C)N3CCN(C[C@@H](O)C[C@@H](Cc4ccccc4)C(=O)N[C@H]4c5ccccc5OC[C@H]4O)[C@H](C(=O)NCC(F)(F)F)C3)o2)c1 value_measured=2.2%

====

MEASUREMENT PROTOCOL: In vitro intrinsic clearance in human liver microsome
Format: ADME
TEST SETTINGS: liver microsomes
OBSERVED PROPERTY: CLint scaled (mL/min/kg)

compound_structure=CC(C)(c1ncc(-c2ccccn2)o1)N1CCN(C[C@@H](O)C[C@@H](Cc2ccccc2)C(=O)N[C@H]2c3ccccc3OC[C@H]2O)[C@H](C(=O)NCC(F)(F)F)C1 value_measured=500
compound_structure=CC(C)(c1ncc(-c2cccnc2)o1)N1CCN(C[C@@H](O)C[C@@H](Cc2ccccc2)C(=O)N[C@H]2c3ccccc3OC[C@H]2O)[C@H](C(=O)NCC(F)(F)F)C1 value_measured=27
compound_structure=COc1cncc(-c2cnc(C(C)(C)N3CCN(C[C@@H](O)C[C@@H](Cc4ccccc4)C(=O)N[C@H]4c5ccccc5OC[C@H]4O)[C@H](C(=O)NCC(F)(F)F)C3)o2)c1 value_measured=13
